Field: pIC50. Provide a value for each of the molecules that follow.
- target.or.test.system: VIM-2 metallo-β-lactamase (Class B) (Pseudomonas aeruginosa)
- experiment.summary: β-Lactamase inhibition, VIM-2
- conditions: nitrocefin 100 μM, 486 nm; 15 min preincubation at 37° C., PBS pH 7.4
pIC50: −log10 of the molar value.

Solved cases (5 shown):
molecule	pIC50
CN1CCC(CC(=O)N[C@H]2Cc3cccc(C(=O)O)c3OB2O)CC1	6.00 to 7.00
NCC1CN(CC(=O)N[C@H]2Cc3cccc(C(=O)O)c3OB2O)CCC1N (some centres unmarked)	4.00 to 5.00
NCCC(=O)NC1CCN(CC(=O)N[C@H]2Cc3cccc(C(=O)O)c3OB2O)CC1	4.00 to 5.00
NCC1CCCN(CC(=O)N[C@H]2Cc3cccc(C(=O)O)c3OB2O)C1 (some centres unmarked)	4.00 to 5.00
N=C(N)NCC1CCCN(CC(=O)N[C@H]2Cc3cccc(C(=O)O)c3OB2O)C1 (some centres unmarked)	6.00 to 7.00

Each molecule below has a recorded value; state its pIC50.
1. NC1CCN(CC(=O)N[C@H]2Cc3cccc(C(=O)O)c3OB2O)CC1N (some centres unmarked)
2. CN1CCC(C(=O)N[C@H]2Cc3cccc(C(=O)O)c3OB2O)(N(C)C)CC1
3. NCCN1CCN(CC(=O)N[C@H]2Cc3cccc(C(=O)O)c3OB2O)C(=O)C1
4. NCCN1CCC(NCC(=O)N[C@H]2Cc3cccc(C(=O)O)c3OB2O)CC1
5. CN(CC(=O)N[C@H]1Cc2cccc(C(=O)O)c2OB1O)C1CCNCC1
6. O=C(O)c1cccc2c1OB(O)[C@@H](NC(=O)C1CNCCN1)C2 (some centres unmarked)
7. O=C(O)CN1CCN(CC(=O)N[C@H]2Cc3cccc(C(=O)O)c3OB2O)CC1

[reply]
["4.00 to 5.00", "5.00 to 6.00", "5.00 to 6.00", "5.00 to 6.00", "6.00 to 7.00", "5.00 to 6.00", "4.00 to 5.00"]

List pIC50 for every entry below, keeping the order given.
1. O=C(CN1CCN(CCO)CC1)N[C@H]1Cc2cccc(C(=O)O)c2OB1O
2. O=C(CN1CCCNCC1)N[C@H]1Cc2cccc(C(=O)O)c2OB1O
3. N[C@@H]1CCN(CC(=O)N[C@H]2Cc3cccc(C(=O)O)c3OB2O)C1
4. NCCN1CCC(CCC(=O)N[C@H]2Cc3cccc(C(=O)O)c3OB2O)CC1
5. NC1CCN(CC(=O)N[C@H]2Cc3cccc(C(=O)O)c3OB2O)CC1

[reply]
1. 6.00 to 7.00
2. 4.00 to 5.00
3. 5.00 to 6.00
4. 5.00 to 6.00
5. 4.00 to 5.00

For each entry beneath this line, provide reported pIC50.
1. NC1CCN(CC(=O)N[C@H]2Cc3cccc(C(=O)O)c3OB2O)CC1O (some centres unmarked)
2. NCCN1CCC(CC(=O)N[C@H]2Cc3cccc(C(=O)O)c3OB2O)CC1
3. O=C(CNC1CCNCC1)N[C@H]1Cc2cccc(C(=O)O)c2OB1O
4. O=C(CN1CCN(c2nccs2)CC1)N[C@H]1Cc2cccc(C(=O)O)c2OB1O
5. O=C(CCN1CCNCC1)N[C@H]1Cc2cccc(C(=O)O)c2OB1O

[reply]
4.00 to 5.00
6.00 to 7.00
6.00 to 7.00
5.00 to 6.00
5.00 to 6.00

Please give pIC50, item by item, for the list that follows.
1. O=C(O)c1cccc2c1OB(O)[C@@H](NC(=O)C1CNC1)C2
2. O=C(CN1CCNCC1)N[C@H]1Cc2cccc(C(=O)O)c2OB1O
3. N[C@H]1CCN(CC(=O)N[C@H]2Cc3cccc(C(=O)O)c3OB2O)C1

[reply]
1: 5.00 to 6.00; 2: 5.00 to 6.00; 3: 5.00 to 6.00
